Assignment: determine reported ARE-luciferase IC50 for the given binders.
Target: T1, human myostatin (mature, recombinant; R&D Systems) (human, UniProt O14793 267-375)
T1 sequence: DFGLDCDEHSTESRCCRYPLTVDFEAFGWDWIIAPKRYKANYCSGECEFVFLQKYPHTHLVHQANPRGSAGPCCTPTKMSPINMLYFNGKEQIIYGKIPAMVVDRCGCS
Test: cell-based or functional assay
Numbers only, in nM.

[[record]]
binder = "3115_D04 (designed binder) MGVSDVPRDLEVVAATPTSLLISWDAPRGLARYYRITYGETGGNSPVQEFTVFGRGTTATISGLKPGVDYTITVYAVTIDRDGTRSFDPISINYRTEIDKPSQHHHHHH"
measure = "ARE-luciferase IC50"
reported_measurement = 0.16


**Query** Let me know recorded ARE-luciferase IC50 for 2525_F07 (designed binder) MGVSDVPRDLEVVAATPTSLLISWSLPYAAHMNYYRITYGETGGNSPVQEFTVPGRGVTATISGLKPGVDYTITVYAVTLTRSQVIHYMPISINYRTEIDKPSQHHHHHH , thanks.
**Result** 0.13
